assay: Inhibitory activity of Fractalkine-induced increase in [Ca2+] Conc. in HEL cells at human CX3CR1 receptor; type: functional, cell-based
Experimental endpoint: IC50

// CC[N+]1(C/C2=C/CCCCCC2)CCC(NC(=O)C2c3cc(Cl)ccc3Oc3ccc(Cl)cc32)CC1 (stereo in doubt; 2q-1) : IC50 value = > 10 µM

* * *

molecular target: C-C chemokine receptor type 1 (Mus musculus); experiment: Inhibitory activity against [125I]-MIP-1 alpha binding to mouse CCR1 receptors.
Experimental endpoint: IC50 (nM)
A number alone suffices; assume nM.

1. C=CC[N+]1(CC2CCCCCCC2)CCC(NC(=O)C2c3ccccc3Oc3ccccc32)CC1 (centres undefined) : 670
2. C[N+]1(C/C2=C/CCCCCC2)CCC(NC(=O)C2c3ccccc3Oc3ccccc32)CC1 (centres undefined) : 350
3. CC[N+]1(C/C2=C/CCCCCC2)CCC(NC(=O)C2c3cc(Cl)ccc3Oc3ccc(Cl)cc32)CC1 (stereo in doubt; 2q) : 12
4. CC[N+]1(C/C2=C/CCCCCC2)CCC(NC(=O)C2c3ccccc3Oc3ccccc32)CC1 (centres undefined) : 63

Now look at this one.
// field: IC50; key: C[N+]1(CC2CCCCCCC2)CCC(NC(=O)C2c3cc(Cl)ccc3Oc3ccc(Cl)cc32)CC1 (centres undefined) ; value = 710

* * *

Molecular target: C-C chemokine receptor type 1 (Mus musculus)
Sequence (P51675 whole entry): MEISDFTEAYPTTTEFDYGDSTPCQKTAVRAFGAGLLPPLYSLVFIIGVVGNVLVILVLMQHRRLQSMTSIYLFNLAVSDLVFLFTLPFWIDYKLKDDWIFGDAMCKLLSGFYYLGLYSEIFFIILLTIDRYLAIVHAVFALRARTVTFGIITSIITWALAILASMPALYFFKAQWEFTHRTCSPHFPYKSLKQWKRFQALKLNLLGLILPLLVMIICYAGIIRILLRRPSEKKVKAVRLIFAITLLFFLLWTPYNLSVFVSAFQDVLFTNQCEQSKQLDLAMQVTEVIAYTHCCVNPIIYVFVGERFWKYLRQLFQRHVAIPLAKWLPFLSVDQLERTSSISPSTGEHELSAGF
Assay: Inhibitory activity against [125I]-MIP-1 alpha binding to mouse CCR1 receptors.
Experimental endpoint: IC50 (µM)
Supply the numeric figure in µM, leaving out any unit text.

1. C[N+]1(CC2CCCCCCC2)CCC(NC(=O)C2c3ccccc3Oc3ccccc32)CC1 (stereo not drawn) : 2.1
2. CCC[N+]1(CC2CCCCCCC2)CCC(NC(=O)C2c3cc(Br)ccc3Oc3ccc(Br)cc32)CC1 (stereo not drawn) : 0.14
3. C[N+]1(CC2CCCCCCC2)CCC(NC(=O)C2c3cc(Br)ccc3Oc3ccc(Br)cc32)CC1 (stereo not drawn) : 0.24

Now consider a different compound.
Recorded result, CCC[N+]1(C/C2=C/CCCCCC2)CCC(NC(=O)C2c3ccccc3Oc3ccccc32)CC1 (stereo not drawn) , IC50: 0.27

* * *

molecular target: UniProt P32246; assay: Inhibitory activity against [125I]-MIP-1 alpha binding to human CCR1 receptors.
Experimental endpoint: pIC50
The scale used: pIC50 is minus the common logarithm of the concentration in molar units.

1. C[N+]1(CC2CCCCCCC2)CCC(NC(=O)C(O)(c2ccccc2)c2ccccc2)CC1 (centres undefined) : 5.68
2. O=C(NC1CCN(CC2CCCCCCCCC2)CC1)C1c2ccccc2Oc2ccccc21 : 6.10

Entry `O=C(NC1CCN(CC2CCCCCCC2)CC1)C(O)(c1ccccc1)c1ccccc1` — recorded pIC50 = 5.80

compound CC[N+]1(C/C2=C/CCCCCC2)CCC(NC(=O)C2c3cc(Cl)ccc3Oc3ccc(Cl)cc32)CC1 (stereo in doubt; 2q-2) , pIC50 observed: 7.33

Notebook: CCC[N+]1(CC2CCCCCCC2)CCC(NC(=O)C2c3ccccc3Oc3ccccc32)CC1 (centres undefined) , pIC50 read as 8.44

Lookup result for `CCCCCCN1CCC(NC(=O)C2c3ccccc3Oc3ccccc32)CC1` ; measured pIC50: 6.29

Kindly note the recorded pIC50 for CC[N+]1(C/C2=C/CCCCCC2)CCC(NC(=O)C2c3cc(Cl)ccc3Oc3ccc(Cl)cc32)CC1 (stereo in doubt; 2q) , which is 8.92

* * *

biological target: C-C chemokine receptor type 1 (Mus musculus); assay: Inhibitory activity against [125I]-MIP-1 alpha binding to mouse CCR1 receptors.
Entries and their measured pIC50 follow.
As a rule, pIC50 stands for the negative log10 of the concentration, concentration in M.

Known pIC50 results, listed for orientation:
1. CC[N+]1(C/C2=C/CCCCCC2)CCC(NC(=O)C2c3cc(Cl)ccc3Oc3ccc(Cl)cc32)CC1 (stereo in doubt; 2q-2) : 6.13
2. CC[N+]1(CC2CCCCCCC2)CCC(NC(=O)C2c3ccccc3Oc3ccccc32)CC1 (centres undefined) : 6.18
3. O=C(NC1CC[N+](Cc2ccccc2)(CC2CCCCCCC2)CC1)C1c2ccccc2Oc2ccccc21 (centres undefined) : 5.89
4. O=C(NC1CCN(C/C2=C/CCCCCC2)CC1)C1c2cc(Cl)ccc2Oc2ccc(Cl)cc21 : 5.72
5. CCCC[N+]1(CC2CCCCCCC2)CCC(NC(=O)C2c3ccccc3Oc3ccccc32)CC1 (centres undefined) : 6.42
6. CCC[N+]1(CC2CCCCCCC2)CCC(NC(=O)C2c3ccccc3Oc3ccccc32)CC1 (centres undefined) : 6.57

Note: attention shifts to another entry.
# CC[N+]1(C/C2=C/CCCCCC2)CCC(NC(=O)C2c3cc(Cl)ccc3Oc3ccc(Cl)cc32)CC1 (stereo in doubt; 2q-1) with C-C chemokine receptor type 1 (Mus musculus): pIC50 is 8.24

* * *

target: C-C chemokine receptor type 1 (Mus musculus, UniProt P51675); test: Inhibitory activity against [125I]-MIP-1 alpha binding to mouse CCR1 receptors.
pIC50: −log10 of the molar value.
The entries below are paired with their reported pIC50.

C-C chemokine receptor type 1 (Mus musculus, UniProt P51675) pIC50 of C[N+]1(CC2CCCCCCC2)CCC(NC(=O)c2c3ccccc3cc3ccccc23)CC1 (centres undefined) is < 5.00

Summary: C[N+]1(CC2CCCCCCC2)CCC(NC(=O)C(c2ccccc2)c2ccccc2)CC1 (centres undefined) , C-C chemokine receptor type 1 (Mus musculus, UniProt P51675), pIC50 = < 5.00

Value sought: pIC50, system C-C chemokine receptor type 1 (Mus musculus, UniProt P51675), item `O=C(NC1CCN(CC2CCCCCCC2)CC1)C(c1ccccc1)c1ccccc1` . Result: < 5.00

The reported pIC50 value, C-C chemokine receptor type 1 (Mus musculus, UniProt P51675), for C[N+]1(CC2CCCCCCC2)CCC(NC(=O)C(O)(c2ccccc2)c2ccccc2)CC1 (centres undefined) reads < 5.00

* * *

# Lookup of reported IC50 keyed by entry
molecular target: C-C chemokine receptor type 1 (Mus musculus, UniProt P51675); experiment: Inhibitory activity against [125I]-MIP-1 alpha binding to mouse CCR1 receptors.

1. O=C(NC1CCN(Cc2ccccc2)CC1)C1c2ccccc2Oc2ccccc21 : > 10 µM

Recorded IC50 (molecule `O=C(NC1CCN(CC2CCCCC2)CC1)C1c2ccccc2Oc2ccccc21` ): > 10 µM

The value of IC50 measured for the molecule `O=C(NC1CCN(Cc2ccc3ccccc3c2)CC1)C1c2ccccc2Oc2ccccc21` turned out to be > 10 µM

The measured IC50 associated with `O=C(NC1CCN(CC2CCCCCCC2)CC1)C(O)(c1ccccc1)c1ccccc1` reads > 10 µM

* * *

Biological target: C-C chemokine receptor type 1 (Homo sapiens)
Sequence (P32246 whole entry): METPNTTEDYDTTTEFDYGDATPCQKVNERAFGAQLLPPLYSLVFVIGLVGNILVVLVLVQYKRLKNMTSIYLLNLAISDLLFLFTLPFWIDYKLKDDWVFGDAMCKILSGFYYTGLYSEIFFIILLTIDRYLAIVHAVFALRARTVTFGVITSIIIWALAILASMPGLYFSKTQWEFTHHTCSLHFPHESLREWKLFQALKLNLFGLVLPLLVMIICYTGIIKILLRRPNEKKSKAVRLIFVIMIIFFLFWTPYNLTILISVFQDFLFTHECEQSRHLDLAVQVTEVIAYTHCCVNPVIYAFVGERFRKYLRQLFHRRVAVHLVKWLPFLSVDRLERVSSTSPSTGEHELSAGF
Experiment: Inhibitory activity against [125I]-MIP-1 alpha binding to human CCR1 receptors.
Experimental endpoint: pIC50
Quick note: pIC50 means taking -log10 of the concentration in moles per liter.

1) CC[N+]1(CC2CCCCCCC2)CCC(NC(=O)C2c3cc(Br)ccc3Oc3ccc(Br)cc32)CC1 (configuration not stated) : 8.48
2) CC[N+]1(C/C2=C/CCCCCC2)CCC(NC(=O)C2c3cc(Cl)ccc3Oc3ccc(Cl)cc32)CC1 (stereo in doubt; 2q-1) : 9.05

# evaluate next
Value (pIC50, C-C chemokine receptor type 1 (Homo sapiens)) for record CCC[N+]1(CC2CCCCCCC2)CCC(NC(=O)C2c3cc(Br)ccc3Oc3ccc(Br)cc32)CC1 (configuration not stated) = 8.51
